Recorded values, source paper PMC6150381.

Test System: recombinant CETP (Homo sapiens)
Construct: purchased Roar, New York, NY, USA RB-RPAK
Test Details: In vitro CETP inhibitory assay (BODIPY-CE fluorescence assay, CETP RP Activity Assay Kit)
Format: biochemical
Condition Description: CETP inhibition, eight-point titration, each concentration tested three times
Label scheme for IC50: A: < 6 µM; B: ≥ 6 µM and < 20 µM; C: ≥ 20 µM

Below, 3 compounds whose answers are already recorded.
[
  {
    "Compound": "Fc1ccc(CN(Cc2nnc(-c3ccccc3)o2)c2cccc(Oc3ccccc3)c2)cc1 [Compound 17e]",
    "Category Label": "C"
  },
  {
    "Compound": "O=[N+]([O-])c1ccc(-c2csc(CN(Cc3ccc(F)cc3)c3cccc(C(F)(F)F)c3)n2)cc1",
    "Category Label": "B"
  },
  {
    "Compound": "COc1ccc(N(Cc2ccc(F)cc2)Cc2nc(-c3ccc(N)cc3)cs2)cc1OC",
    "Category Label": "B"
  }
]

Classify this compound: "O=[N+]([O-])c1ccc(-c2csc(CN(Cc3ccc(F)cc3)c3cccc(-c4ccccc4)c3)n2)cc1" B

Classify this compound: "COc1ccc(N(Cc2ccc(F)cc2)Cc2nc(-c3ccc([N+](=O)[O-])cc3)cs2)cc1OC" A

Classify this compound: "COc1ccc(N(Cc2ccc(F)cc2)Cc2nc(-c3cccc([N+](=O)[O-])c3)cs2)cc1OC" A

====

Test System: recombinant CETP (Homo sapiens, UniProt P11597)
Construct: purchased Roar, New York, NY, USA RB-RPAK
Sequence (P11597 18-493): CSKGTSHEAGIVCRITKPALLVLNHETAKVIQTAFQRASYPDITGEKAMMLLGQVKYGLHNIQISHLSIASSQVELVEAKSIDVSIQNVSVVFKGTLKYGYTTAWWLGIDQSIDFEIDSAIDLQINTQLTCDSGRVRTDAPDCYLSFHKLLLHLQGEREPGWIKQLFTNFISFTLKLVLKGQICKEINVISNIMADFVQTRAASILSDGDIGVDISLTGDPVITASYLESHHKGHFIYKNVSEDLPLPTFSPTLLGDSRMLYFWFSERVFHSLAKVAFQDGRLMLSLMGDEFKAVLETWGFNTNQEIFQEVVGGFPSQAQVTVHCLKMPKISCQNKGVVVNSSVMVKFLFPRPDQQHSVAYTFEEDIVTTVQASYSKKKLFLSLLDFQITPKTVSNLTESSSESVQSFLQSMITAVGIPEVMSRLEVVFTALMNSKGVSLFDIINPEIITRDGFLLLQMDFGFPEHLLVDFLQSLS
Test Details: In vitro CETP inhibitory assay (BODIPY-CE fluorescence assay, CETP RP Activity Assay Kit)
Assay type: biochemical
Condition Description: CETP inhibition, eight-point titration, each concentration tested three times
Measure Name: pIC50
Please express pIC50 as -log10 of the molar concentration.

These solved cases illustrate the format of a correct answer.
[
  {
    "Compound": "COc1ccc(N(Cc2ccc(F)cc2)Cc2nc(-c3ccc(NC(=O)C(F)(F)F)cc3)cs2)cc1OC",
    "Measure Name": "pIC50",
    "Experimental Value": 4.82
  },
  {
    "Compound": "COc1ccc(N(Cc2ccc(F)cc2)Cc2nc(-c3ccc(C)cc3)cs2)cc1OC",
    "Measure Name": "pIC50",
    "Experimental Value": 4.85
  },
  {
    "Compound": "COc1ccc(N(Cc2ccc(F)cc2)Cc2nc(-c3ccc(-c4c(C)noc4C)cc3)cs2)cc1OC",
    "Measure Name": "pIC50",
    "Experimental Value": 5.12
  },
  {
    "Compound": "COc1ccc(N(Cc2ccc(F)cc2)Cc2nc(-c3ccc(F)cc3)cs2)cc1OC",
    "Measure Name": "pIC50",
    "Experimental Value": 5.61
  },
  {
    "Compound": "Fc1ccc(CN(Cc2nc3ccccc3[nH]2)c2cccc(Oc3ccccc3)c2)cc1 [Compound 17f]",
    "Measure Name": "pIC50",
    "Experimental Value": 4.86
  }
]

Proceed to the following item.
What reported pIC50 corresponds to Fc1ccc(CN(Cc2ncc(-c3ccccc3)s2)c2cccc(Oc3ccccc3)c2)cc1 [Compound 17b] on recombinant CETP (Homo sapiens, UniProt P11597)? 4.97
